tested on: HLA-A*26:01
experiment description: IEDB peptide-MHC binding, purified MHC/competitive/fluorescence; filed as Kd, often an IC50 or EC50 that approximates it; bounds were set here for any values at or beyond the usual limits of such assays
condition label: source organism: Human immunodeficiency virus 1
readout: Kd

Q: Given VLYCVHQRV , state its recorded Kd.
Result: ≥ 20 µM

---

tested on: HLA-B*15:17
experiment description: IEDB peptide-MHC binding, purified MHC/direct/fluorescence; filed as Kd, often an IC50 or EC50 that approximates it; bounds were set here for any values at or beyond the usual limits of such assays
condition label: source organism: Escherichia coli O157:H7
readout: Kd

residue sequence: YECTSRHFT
Kd: ≥ 20 µM

Below: the item to evaluate.
Q: GET /values?readout=Kd&system=HLA-B*15:17&item= EEDAAVDDL
Result: ≥ 20 µM

---

tested on: HLA-A*03:01
experiment description: IEDB peptide-MHC binding, purified MHC/competitive/fluorescence; filed as Kd, often an IC50 or EC50 that approximates it; bounds were set here for any values at or beyond the usual limits of such assays
condition label: source organism: Giardia lamblia ATCC 50803
readout: Kd

Q: Look up Kd for this sequence: ALGGSCHTT
Result: ≥ 20 µM

---

tested on: HLA-A*31:01
experiment description: IEDB peptide-MHC binding, purified MHC/competitive/fluorescence; filed as Kd, often an IC50 or EC50 that approximates it; bounds were set here for any values at or beyond the usual limits of such assays
condition label: source organism: Mammarenavirus lassaense
readout: Kd (nM)
Field format: number, assumed nM, no unit text.

Q: HLA-A*31:01 / Kd / STFTRGAQK : value?
Result: 27

---

tested on: HLA-B*08:01
experiment description: IEDB peptide-MHC binding, purified MHC/direct/fluorescence; filed as Kd, often an IC50 or EC50 that approximates it; bounds were set here for any values at or beyond the usual limits of such assays
condition label: source organism: Yersinia enterocolitica
pKd: −log10 of the molar value.
readout: pKd

Q: What value of measured pKd is listed for YIFRNTINM ?
Result: ≤ 4.70

---

Each record here notes measured Kd.
tested on: HLA-A*03:01
experiment description: IEDB peptide-MHC binding, purified MHC/competitive/radioactivity; filed as Kd, often an IC50 or EC50 that approximates it; bounds were set here for any values at or beyond the usual limits of such assays
condition label: source organism: SARS coronavirus Tor2
I only need the number, in nM, no unit after it.

residue sequence: TLNVLAWLY
value unit: nM
Kd: 36.5
//
residue sequence: VLLRKNGNK
value unit: nM
Kd: 42.2
//
residue sequence: TTTSTALGK
value unit: nM
Kd: 718

Now for the sequence whose Kd we want.
Q: For the sequence shown here, ATEGALNTPK , give the reported Kd.
Result: 82

---

tested on: HLA-B*57:01
experiment description: IEDB peptide-MHC binding, purified MHC/direct/fluorescence; filed as Kd, often an IC50 or EC50 that approximates it; bounds were set here for any values at or beyond the usual limits of such assays
condition label: source organism: Brucella abortus 2308
readout: Kd

Q: Lookup: Kd / HLA-B*57:01 / RMIESRMSK
Result: ≥ 20 µM

---

tested on: HLA-B*08:01
experiment description: IEDB peptide-MHC binding, purified MHC/direct/fluorescence; filed as Kd, often an IC50 or EC50 that approximates it; bounds were set here for any values at or beyond the usual limits of such assays
condition label: source organism: Zaire ebolavirus
readout: Kd

Q: Hello, I am looking for reported Kd with HLA-B*08:01 for YDRLASTVI . Could you help?
Result: ≥ 20 µM

---

tested on: HLA-B*40:02
experiment description: IEDB peptide-MHC binding, purified MHC/competitive/radioactivity; filed as Kd, often an IC50 or EC50 that approximates it; bounds were set here for any values at or beyond the usual limits of such assays
condition label: source organism: SARS coronavirus Tor2
Catalogue of Kd values
Reply numerically in nM, unit not repeated.

Example results:
residue sequence: HECFVKRVDW
tested on: HLA-B*40:02
readout: Kd
value unit: nM
test result: 5780

residue sequence: EEHFVETVSL
tested on: HLA-B*40:02
readout: Kd
value unit: nM
test result: 84.3

residue sequence: SELVIGAVI
tested on: HLA-B*40:02
readout: Kd
value unit: nM
test result: 55.9

Consider now this further sequence.
Q: Which Kd reading was recorded for the sequence TEGLCVDIPG ?
Result: 91.8

---

tested on: HLA-A*01:01
experiment description: IEDB peptide-MHC binding, purified MHC/direct/fluorescence; filed as Kd, often an IC50 or EC50 that approximates it; bounds were set here for any values at or beyond the usual limits of such assays
condition label: source organism: Haemophilus influenzae
readout: pKd
Answer as the number alone; pKd is minus log10 of concentration in mol/L.

Q: // lookup pKd for LAEQFSGEY
Result: 6.61

---

tested on: HLA-B*08:01
experiment description: IEDB peptide-MHC binding, purified MHC/competitive/fluorescence; filed as Kd, often an IC50 or EC50 that approximates it; bounds were set here for any values at or beyond the usual limits of such assays
condition label: source organism: Acinetobacter baumannii
pKd: −log10 of the molar value.
readout: pKd

Q: Please give the measured pKd for this sequence: SIYAGNTPK
Result: ≤ 4.70

---

tested on: HLA-B*07:02
experiment description: IEDB peptide-MHC binding, purified MHC/competitive/radioactivity; filed as Kd, often an IC50 or EC50 that approximates it; bounds were set here for any values at or beyond the usual limits of such assays
condition label: source organism: Dengue virus 4 Philippines/H241/1956
Items are presented alongside their recorded pKd.
The read-out pKd is expressed as -log10 of concentration in moles per litre.

residue sequence: APSTGSASSM
pKd: 7.71

Now take the following sequence into account.
Q: Which pKd value belongs to TPEGIIPTLF ?
Result: 6.04

---

tested on: HLA-B*27:05
experiment description: IEDB peptide-MHC binding, purified MHC/direct/fluorescence; filed as Kd, often an IC50 or EC50 that approximates it; bounds were set here for any values at or beyond the usual limits of such assays
condition label: source organism: West Nile virus
readout: Kd

Q: Form field: reported Kd of TRAVGKPLL
Result: ≥ 20 µM

---

tested on: HLA-B*15:17
experiment description: IEDB peptide-MHC binding, purified MHC/direct/fluorescence; filed as Kd, often an IC50 or EC50 that approximates it; bounds were set here for any values at or beyond the usual limits of such assays
condition label: source organism: Brucella abortus 2308
readout: Kd

Q: Please give the measured Kd for this sequence: RMIESRMSK
Result: ≥ 20 µM

---

tested on: HLA-A*68:02
experiment description: IEDB peptide-MHC binding, purified MHC/direct/fluorescence; filed as Kd, often an IC50 or EC50 that approximates it; bounds were set here for any values at or beyond the usual limits of such assays
condition label: source organism: Limestone Canyon virus
pKd: −log10 of the molar value.
readout: pKd

Q: Dear colleague, I am looking for the recorded pKd of the following sequence: IRKPKHLYV
Result: ≤ 4.70

---

tested on: HLA-A*32:15
experiment description: IEDB peptide-MHC binding, purified MHC/competitive/fluorescence; filed as Kd, often an IC50 or EC50 that approximates it; bounds were set here for any values at or beyond the usual limits of such assays
condition label: source organism: Mus musculus
pKd: −log10 of the molar value.
readout: pKd

Q: # query: pKd of entry GVPKTHLEL
Result: ≤ 4.70

---

tested on: HLA-B*39:01
experiment description: IEDB peptide-MHC binding, purified MHC/direct/fluorescence; filed as Kd, often an IC50 or EC50 that approximates it; bounds were set here for any values at or beyond the usual limits of such assays
condition label: source organism: Brucella suis 1330
readout: Kd

Q: Need Kd of RMIESRMSK , thanks.
Result: ≥ 20 µM

---

tested on: HLA-B*44:03
experiment description: IEDB peptide-MHC binding, purified MHC/competitive/radioactivity; filed as Kd, often an IC50 or EC50 that approximates it; bounds were set here for any values at or beyond the usual limits of such assays
condition label: source organism: Mammarenavirus machupoense
readout: pKd
Quick note: pKd means taking -log10 of the concentration in moles per liter.

Q: Request the reported pKd associated with NDNFLMSNV
Result: 4.71

---

tested on: HLA-C*05:01
experiment description: IEDB peptide-MHC binding, purified MHC/direct/fluorescence; filed as Kd, often an IC50 or EC50 that approximates it; bounds were set here for any values at or beyond the usual limits of such assays
condition label: source organism: Vaccinia virus
pKd: −log10 of the molar value.
readout: pKd

Q: Form field: reported pKd of FVDVIIIKV
Result: ≤ 4.70

---

tested on: HLA-A*68:02
experiment description: IEDB peptide-MHC binding, purified MHC/competitive/radioactivity; filed as Kd, often an IC50 or EC50 that approximates it; bounds were set here for any values at or beyond the usual limits of such assays
condition label: source organism: Homo sapiens
readout: Kd

Reference set (4 entries):
residue sequence: ILEDQNCKL
Kd: ≥ 60 µM

residue sequence: ALALEEKRRL
Kd: ≥ 63.8 µM

residue sequence: ALEAKIAQL
Kd: 7.3 µM

residue sequence: KLKKLEEEQI
Kd: ≥ 60 µM

Then this sequence:
Q: Request the reported Kd associated with ALRPSTSRSL
Result: ≥ 60 µM
